test system: MOLT-4 cells; test: MOLT-4 cell viability using MTT assay; assay type: cell-based; conditions: Homo sapiens, MOLT-4, 48 h, 48 h exposure
assayEndpoint: IC50 (nM)

Before answering, review these 4 worked examples.
[[record]]
smilestext = "CNC(C)(C)C#Cc1ccc(OCCCc2sc(N3CCCc4c3nnc(Nc3nc5ccccc5s3)c4C)nc2C(=O)O)c(F)c1"
assayendpoint = "IC50"
outputunit = "nM"
experimentalresult = 0.359

[[record]]
smilestext = "Cc1c(Nc2nc3ccccc3s2)nnc2c1CCCN2c1ccc(-c2cnn(CC34CC5(C)CC(C)(C3)CC(OCCN(C)CC[C@@H](O)CO)(C5)C4)c2C)c(C(=O)O)n1"
assayendpoint = "IC50"
outputunit = "nM"
experimentalresult = 1.94

[[record]]
smilestext = "Cc1c(Nc2nc3ccccc3s2)nnc2c1CCCN2c1ccc(-c2cnn(CC34CC5(C)CC(C)(C3)CC(OCCN3CCN(C)CC3)(C5)C4)c2C)c(C(=O)O)n1"
assayendpoint = "IC50"
outputunit = "nM"
experimentalresult = 0.284

[[record]]
smilestext = "Cc1c(Nc2nc3ccccc3s2)nnc2c1CCCN2c1ccc(-c2cnn(CC34CC5(C)CC(C)(CC(CCCN6CCCC6)(C5)C3)C4)c2C)c(C(=O)O)n1"
assayendpoint = "IC50"
outputunit = "nM"
experimentalresult = 0.429


1 = CNCCOC12CC3(C)CC(C)(CC(Cn4ncc(-c5ccc(N6CCCc7c6nnc(Nc6nc8ccccc8s6)c7C)nc5C(=O)O)c4C)(C3)C1)C2
2 = Cc1c(Nc2nc3ccccc3s2)nnc2c1CCCN2c1nc(C(=O)O)c(CCCOc2ccc(CCCN3CCOCC3)cc2F)s1
Min IC50? 1 | 2 Refer to your chosen item by its label in the answer. 1
(1: 0.616 nM, 2: 3.08 nM)

###

tested on: MOLT-4 cells; assay: MOLT-4 cell viability using MTT assay; assay type: cell-based; conditions: Homo sapiens, MOLT-4, 48 h, 48 h exposure
assayEndpoint: IC50 (nM)

Check out these entries, answers already filled in.
[[record]]
molecule = "CN(C)CC#Cc1ccc(OCCCc2sc(N3CCCc4c3nnc(Nc3nc5ccccc5s3)c4C3CC3)nc2C(=O)O)c(F)c1"
experimentalresult = 0.775

[[record]]
molecule = "CNCC#Cc1ccc(OCCCc2sc(N3CC(O)Cc4c3nnc(Nc3nc5ccccc5s3)c4C)nc2C(=O)O)c(F)c1 (stereo not drawn)"
experimentalresult = 59.4


I = Cc1c(Nc2nc3ccccc3s2)nnc2c1CCCN2c1nc(C(=O)O)c(CCCOc2ccc(C#CCN(C)CC[C@H](O)CO)cc2F)s1
II = Cc1c(Nc2nc3ccccc3s2)nnc2c1CCCN2c1nc(C(=O)O)c(CCCOc2ccc(C#CCNCC[N+](C)(C)CCCS(=O)(=O)[O-])cc2F)s1
III = Cc1c(Nc2nc3ccccc3s2)nnc2c1CCCN2c1ccc(-c2cnn(CC34CC5(C)CC(C)(CC(CCCNCCCO)(C5)C3)C4)c2C)c(C(=O)O)n1
Rank ascending by IC50. # the answer lists labels in the order requested I, III, II
(I: 0.277 nM, III: 0.787 nM, II: 47.2 nM)

###

target: His-His-(EK)-hsBCLXL(2-197)[N197C] (Homo sapiens (Human), UniProt Q07817, N197C); experiment: Fluorescence quenching assay; conditions: 1 nM Cy5-labelled protein, 400 nM PUMA peptide, 2 hours at 23° C.; KI determined from IC50
Sequence (Q07817 2-197 N197C): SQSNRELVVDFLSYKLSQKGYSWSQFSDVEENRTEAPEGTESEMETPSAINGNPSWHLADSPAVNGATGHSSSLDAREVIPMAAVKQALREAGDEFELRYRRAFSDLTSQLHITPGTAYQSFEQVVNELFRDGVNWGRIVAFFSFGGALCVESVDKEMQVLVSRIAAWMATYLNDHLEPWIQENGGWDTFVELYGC
pKi: −log10 of the molar value.
assayEndpoint: pKi

The following molecules have reported results that may help.
[[record]]
molecule = "Cc1c(Nc2nc3ccccc3s2)nnc2c1CCCN2c1nc(C(=O)O)c(CCCOc2ccc(C#CCNCC[C@@H](O)CO)cc2F)s1 [Example 131]"
assayendpoint = "pKi"
experimentalresult = 11.35

[[record]]
molecule = "Cc1c(Nc2nc3ccccc3s2)nnc2c1CCCN2c1ccc(-c2cnn(CC34CC5(C)CC(C)(C3)CC(OCCNCC(CO)CO)(C5)C4)c2C)c(C(=O)O)n1 [Example 133]"
assayendpoint = "pKi"
experimentalresult = 11.68

[[record]]
molecule = "CNCCCCc1ccc(OCCCc2sc(N3CCCc4c3nnc(Nc3nc5ccccc5s3)c4C)nc2C(=O)O)c(F)c1 [Example 75]"
assayendpoint = "pKi"
experimentalresult = 11.48

[[record]]
molecule = "Cc1c(Nc2nc3ccccc3s2)nnc2c1CCCN2c1ccc(-c2cnn(CC34CC5(C)CC(C)(C3)CC(OCCN3CCN(C(C)C)CC3)(C5)C4)c2C)c(C(=O)O)n1 [Example 146]"
assayendpoint = "pKi"
experimentalresult = 11.49


I = Cc1c(Nc2nc3ccccc3s2)nnc2c1CCCN2c1ccc(-c2cnn(CC34CC5(C)CC(C)(C3)CC(OCCNCc3ccc(O)cc3)(C5)C4)c2C)c(C(=O)O)n1 [Example 149]
II = Cc1c(Nc2nc3cccc(F)c3s2)nnc2c1CCCN2c1ccc(-c2cnn(CC34CC5(C)CC(C)(C3)CC(OCCN3CCCC3)(C5)C4)c2C)c(C(=O)O)n1 [Example 178]
III = Cc1c(Nc2nc3ccccc3s2)nnc2c1CCCN2c1nc(C(=O)O)c(CCCOc2ccc(CN)cc2F)s1 [Example 35]
Please list these molecules in decreasing order of pKi. API: response body holds the labels in the requested order. II, I, III
(II: 11.66, I: 11.43, III: 11.11)

I = CNCC#Cc1ccc(OCCCc2sc(N3CCCc4c3nnc(Nc3nc5ccccc5s3)c4C)nc2C(=O)O)c(F)c1 [Example 32]
II = Cc1c(Nc2nc3ccccc3s2)nnc2c1CCCN2c1ccc(-c2cnn(CC34CC5(C)CC(C)(CC(CCCN6CCCC6)(C5)C3)C4)c2C)c(C(=O)O)n1 [Example 166]
III = CC(=O)N(C)CC#Cc1ccc(OCCCc2sc(N3CCCc4c3nnc(Nc3nc5ccccc5s3)c4C)nc2C(=O)O)c(F)c1 [Example 139]
IV = COC(=O)c1nc(N2CCCc3c2nnc(Nc2nc4ccccc4s2)c3C)sc1CCCOc1ccc(C#CCN)cc1F [Example 126]
Sequence the entries by pKi, beginning with the highest number. Hello, could you send the labels back in the order asked? Thank you. II, I, III, IV
(II: 11.57, I: 11.34, III: 10.70, IV: 10.17)

###

test system: MOLT-4 cells; assay: MOLT-4 cell viability using MTT assay; type: cell-based; conditions: Homo sapiens, MOLT-4, 48 h, 48 h exposure
pIC50: −log10 of the molar value.
assayEndpoint: pIC50

[[record]]
smilestext = "Cc1c(Nc2nc3ccccc3s2)nnc2c1CCCN2c1ccc(-c2cnn(CC34CC5(C)CC(C)(C3)CC(OCCN(CCO)CCO)(C5)C4)c2C)c(C(=O)O)n1"
experimentalresult = 8.80


a = Cc1c(Nc2nc3ccccc3s2)nnc2c1CCCN2c1ccc(-c2cnn(CC34CC5(C)CC(C)(C3)CC(OCCNCC(CO)CO)(C5)C4)c2C)c(C(=O)O)n1
b = Cc1c(Nc2nc3ccccc3s2)nnc2c1CCCN2c1nc(C(=O)O)c(CCCOc2ccc(CCCN3CCC4(CC3)CNC(=O)C4)cc2F)s1
Problem: Given the entries a and b , determine which has the lower reported pIC50. Mark your answer with the label of the selected entry. b

###

Biological target: His-His-(EK)-hsBCLXL(2-197)[N197C] (Homo sapiens (Human), UniProt Q07817, N197C)
Experiment: Fluorescence quenching assay
Conditions: 1 nM Cy5-labelled protein, 400 nM PUMA peptide, 2 hours at 23° C.; KI determined from IC50
From the text: Fluorescence quenching assay measures the change in fluorescence intensity of C-terminally Cy5-labelled BCL-xL protein, His-His-(EK)-hsBCLXL(2-197)[N197C] (UniProtKB® […] The addition of a compound which binds competitively to the same site as the peptide will result in an increase in the fluorescence intensity of the protein due to displacement of the fluorescence quencher. […]
pKi: −log10 of the molar value.
assayEndpoint: pKi

I = Cc1c(Nc2nc3ccccc3s2)nnc2c1CCCN2c1nc(C(=O)O)c(CCCOc2ccc(C#CCN3CCCC(O)C3)cc2F)s1 (stereo not drawn)
II = Cc1c(Nc2nc3ccccc3s2)nnc2c1CCCN2c1nc(C(=O)O)c(CCCOc2ccc(C#CC3(N(C)C)CCCCC3)cc2F)s1
III = Cc1c(Nc2nc3ccccc3s2)nnc2c1CCCN2c1nc(C(=O)O)c(CCCOc2cc3c(cc2F)c(CN(C)C)cn3C)s1
Lab note: order the above by reported pKi, lowest first, highest last. I would appreciate it if you listed the labels in the requested order. II, III, I

###

tested on: MOLT-4 cells; assay: MOLT-4 cell viability using MTT assay; type: cell-based; conditions: Homo sapiens, MOLT-4, 48 h, 48 h exposure
assayEndpoint: IC50 (nM)

[[record]]
smilestext = "Cc1c(Nc2nc3ccccc3s2)nnc2c1CCCCN2c1nc(C(=O)O)c(CCCOc2ccc(C#CCN(C)C)cc2F)s1"
outputunit = "nM"
experimentalresult = 14.8


A = Cc1c(Nc2nc3ccccc3s2)nnc2c1CCCN2c1nc(C(=O)O)c(CCCOc2ccc(OCCN(C)C)cc2)s1
B = Cc1c(Nc2nc3ccccc3s2)nnc2c1CCCN2c1ccc(-c2cnn(CC34CC5(C)CC(C)(C3)CC(OCCNCc3ccc(O)cc3)(C5)C4)c2C)c(C(=O)O)n1
Determine, for A and B , which has the greater value of IC50. // respond with label for picked entry A
